- System: SF-295 CNS
- assay-comment: NCI tumour cell line growth inhibition, 48 h; in the data active means GI50 below about 0.43 µM; inactive means the rest
Outcome codes: active, inactive

structure-smiles-string | answer-label
O=C(Nc1ccc(-n2ccc3c(NC(=O)c4ccccc4)nccc32)cc1)c1ccc(Cl)c(C(F)(F)F)c1 | active
FC(F)(F)c1cccc(Nc2nc(-c3ccccc3)nc3ncccc23)c1 | inactive
Cc1cc(-c2nc(C(=O)Nc3cc4oc(N5CCOCC5)nc4nc3N3CC[C@@H](O)C3)co2)ccn1 | inactive
COc1cc(/C=N\NC(=O)CN2CCN(c3cc4c(cc3F)c(=O)c(C(=O)N/N=C/c3cc(OC)c(OC)c(OC)c3)cn4C3CC3)CC2)cc(OC)c1OC | inactive

----------
The following molecules are listed with their measured TGI values.
- Tested on: MDA-N
- assay-comment: NCI tumour cell line growth inhibition, 48 h

molecule | TGI
O=c1ccc(-c2ccccc2)n[nH]1 | > 100 µM
O=C(CCNC12CC3CC(CC(C3)C1)C2)c1ccccc1 | 30.5 µM
C=CC1(C)CCC2C(=CCC3C2(C)CC(O)C(O)C3(C)COC2OC(C(=O)O)C(O)C(O)C2O)C1 (stereo not drawn) (tested in a mixture with another compound) | > 100 µM
O=C1CC(NC(=O)C(F)(F)F)c2c(Br)sc(N3CCNCC3)c21 (stereo not drawn) | > 100 µM
COc1ccc2c(c1)/C(=C/CCN(C)C)c1ccccc1S2 | > 100 µM
CC(C)=CCc1c2c(c3occ(-c4ccc(O)cc4)c(=O)c3c1O)CC(C(C)(C)O)O2 (stereo not drawn) | 49.1 µM
O=[N+]([O-])c1cccc(-c2csc(NNC3=NC/C(=C/c4ccc5c(c4)OCO5)S3)n2)c1 | > 100 µM
COCO[C@@H]1C[C@H]2C(=O)Nc3ccccc3C(=O)N2C1 | > 100 µM

----------
- Test system: A498 renal
- assay-comment: NCI tumour cell line growth inhibition, 48 h
property-measured: TGI

compound | reported-value
N#CC1(C#N)N[C@@H](c2ccsc2)[C@H]2C(=O)N(c3ccccc3)C(=O)[C@H]21 | > 100 µM
COC(=O)c1ccccc1CC1Cc2ccc3c(c2C1=O)CCCC3 (centres undefined) | > 100 µM
COC(=O)C1SC(SC)=NC12c1ccccc1Nc1ccccc12 (centres undefined) | > 100 µM
Cc1nc2n(c1/C=C1/C(=O)Nc3cccc(Cl)c31)CCS2 | > 100 µM
Cc1c(O)c(O)cc[n+]1C1OC(CO)C(O)C1O (centres undefined) | > 100 µM
CCN(CC)CCSc1c2ccccc2nc2cc(NCC(=O)Nc3ccccc3-c3ccccc3NC(=O)CNc3ccc4c(SCCN(CC)CC)c5ccccc5nc4c3)ccc12 | > 100 µM
Cc1cnc(NCCCN(C)C)c2c1[nH]c1ccc3cc(O)ccc3c12 | 3.71 µM
O=C1CC(NC(=O)C(F)(F)F)c2c(Br)sc(N3CCNCC3)c21 (centres undefined) | > 100 µM
O=C(Nc1ccc(F)cc1)Nc1ccc(Cl)c([N+](=O)[O-])c1 | 5.78 µM
CC(C)(C)N1CSC(=S)N(Cc2ccco2)C1 | 26.7 µM
NS(=O)(=O)OC[C@@H]1C[C@@H](n2ccc3c(NC4CCc5ccccc54)ncnc32)C[C@@H]1O (some centres undefined) | 2.27 µM
CNS(=O)(=O)NNS(=O)(=O)c1ccccc1 | > 100 µM
O=C(Nc1ccc(-n2ccc3c(NC(=O)c4ccccc4)nccc32)cc1)c1ccc(Cl)c(C(F)(F)F)c1 | 33.1 µM
CC(=O)NC(Cc1ccc(O)cc1)C(=O)O (centres undefined) | > 100 µM
C=CCOc1ccc2c(C)cc(=O)oc2c1C | > 100 µM
COC(=O)c1ccccc1NC(=O)C(=O)Cc1nc2c3c(ccc2[nH]c1=O)C(=O)c1ccccc1C3=O | > 100 µM
ClCCN1CCC2(CC1)SSC1(CCN(CCCl)CC1)S2 | > 100 µM
CN1CCN(C2=NCCO2)CC1 | > 100 µM
O=C1C=CC(=O)c2c1ccc1c3ccccc3n(CCCCCCCCCCCCn3c4ccccc4c4ccc5c(c43)C(=O)C=CC5=O)c21 | > 100 µM
